Form field: inhibition at 2 µM (one value per entry).
test system: human hepatoma Huh-7 cell line harboring a HCV replicon; assay: HCV replicon assay (inhibition of viral replication, luciferase readout); assay type: cell-based; conditions: Hepatitis C virus, 72 h, Huh-7 HCV replicon cells, 3 days incubation
result.type: inhibition at 2 µM

>  <test.smiles>
Cn1cnnc1S[C@H]1CC[C@H](N(c2cc(C#CC(C)(C)C)sc2C(=O)O)C(=O)[C@H]2CC[C@H](C)CC2)CC1

>  <target.under.test>
human hepatoma Huh-7 cell line harboring a HCV replicon

>  <result>
99.9%

$$$$
>  <test.smiles>
CC(C)(C)C#Cc1cc(N(C(=O)[C@H]2CC[C@H](C)CC2)[C@H]2CC[C@H](Oc3cc(CN4CCCC4)ccn3)CC2)c(C(=O)O)s1

>  <target.under.test>
human hepatoma Huh-7 cell line harboring a HCV replicon

>  <result>
100%

$$$$
>  <test.smiles>
C[C@@H](CCOc1ncccn1)N(c1cc(C#CC(C)(C)C)sc1C(=O)O)C(=O)[C@H]1CC[C@H](C)CC1

>  <target.under.test>
human hepatoma Huh-7 cell line harboring a HCV replicon

>  <result>
99.9%

$$$$
>  <test.smiles>
CC(C)(C)C#Cc1cc(N(C(=O)[C@H]2CC[C@H](C)CC2)[C@H]2CC[C@H](Oc3cccc(N4CCCC4)n3)CC2)c(C(=O)O)s1

>  <target.under.test>
human hepatoma Huh-7 cell line harboring a HCV replicon

>  <result>
73.7%

$$$$
>  <test.smiles>
CC(C)(C)C#Cc1cc(N(C(=O)[C@H]2CC[C@H](C)CC2)[C@H]2CC[C@H](Sc3ncc[nH]3)CC2)c(C(=O)O)s1

>  <target.under.test>
human hepatoma Huh-7 cell line harboring a HCV replicon

>  <result>
99.9%

$$$$
>  <test.smiles>
Cn1nc(O[C@H]2CC[C@H](N(c3cc(C#CC(C)(C)C)sc3C(=O)O)C(=O)[C@H]3CC[C@H](C)CC3)CC2)ccc1=O

>  <target.under.test>
human hepatoma Huh-7 cell line harboring a HCV replicon

>  <result>
100%

$$$$

###

test system: human hepatoma Huh-7 cell line harboring a HCV replicon; assay: HCV replicon assay (inhibition of viral replication, luciferase readout); type: cell-based; conditions: Hepatitis C virus, 72 h, Huh-7 HCV replicon cells, 3 days incubation
result.type: inhibition at 2 µM (%)

>  <molecule>
Cc1nnc(S[C@H]2CC[C@H](N(c3cc(C#CC(C)(C)C)sc3C(=O)O)C(=O)[C@H]3CC[C@H](C)CC3)CC2)o1 [Compound 98]

>  <result.type>
inhibition at 2 µM

>  <quantitative.result>
100

$$$$
>  <molecule>
CC(C)(C)C#Cc1cc(N(C(=O)[C@H]2CC[C@H](C)CC2)[C@H]2CC[C@H](Sc3cccs3)CC2)c(C(=O)O)s1 [Compound 93]

>  <result.type>
inhibition at 2 µM

>  <quantitative.result>
98.1

$$$$
>  <molecule>
CC(C)(C)C#Cc1cc(N(C(=O)[C@H]2CC[C@H](C)CC2)C2CCN(S(=O)(=O)c3ccsc3)CC2)c(C(=O)O)s1 [Compound 205]

>  <result.type>
inhibition at 2 µM

>  <quantitative.result>
99.9

$$$$

###

Form field: inhibition at 2 µM (one value per entry).
System: human hepatoma Huh-7 cell line harboring a HCV replicon
Assay: HCV replicon assay (inhibition of viral replication, luciferase readout)
Type: cell-based
Details: Hepatitis C virus, 72 h, Huh-7 HCV replicon cells, 3 days incubation
Procedure: The anti-HCV activity of the compounds of this invention was tested in a human hepatoma Huh-7 cell line harboring a HCV replicon. The assay comprised the following steps: Step 1: Compound Preparation and Serial Dilution. […] The percent cytotoxicity was determined by calcein AM conversion to fluorescent product. […] The percent anti-HCV replication activity was determined by the luminescence signal from the testing well compared to DMSO control wells. […]
result.type: inhibition at 2 µM

>  <compound>
CC1CCC(C(=O)N(c2cc(C#CC(C)(C)C)sc2C(=O)O)[C@H]2CC[C@H](Oc3cc(CN(C)C)ccn3)CC2)CC1 (stereo partly shown)

>  <target.under.test>
human hepatoma Huh-7 cell line harboring a HCV replicon

>  <result>
100%

$$$$
>  <compound>
Cc1ccc(O[C@H]2CC[C@H](N(c3cc(C#CC(C)(C)C)sc3C(=O)O)C(=O)[C@H]3CC[C@H](C)CC3)CC2)cn1

>  <target.under.test>
human hepatoma Huh-7 cell line harboring a HCV replicon

>  <result>
99.8%

$$$$
>  <compound>
CC(C)(C)C#Cc1cc(N(C(=O)[C@H]2CC[C@H](C)CC2)[C@H]2CC[C@H](O[C@H]3CCNC3)CC2)c(C(=O)O)s1

>  <target.under.test>
human hepatoma Huh-7 cell line harboring a HCV replicon

>  <result>
99.9%

$$$$
>  <compound>
C[C@@H]1CC[C@@H](C(=O)N(c2cc(C#CC(C)(C)C)sc2C(=O)O)[C@H]2CC[C@H](O[C@H]3CCOC3)CC2)[C@@H](O)C1

>  <target.under.test>
human hepatoma Huh-7 cell line harboring a HCV replicon

>  <result>
100%

$$$$
>  <compound>
C=C1CCC(C(=O)N(c2cc(C#CC(C)(C)C)sc2C(=O)O)[C@H]2CC[C@H](Oc3cc(CN(C)C)ccn3)CC2)CC1

>  <target.under.test>
human hepatoma Huh-7 cell line harboring a HCV replicon

>  <result>
100%

$$$$
>  <compound>
CC1=CCC(C(=O)N(c2cc(C#CC(C)(C)C)sc2C(=O)O)[C@H]2CC[C@H](O[C@H]3CCOC3)CC2)[C@H](C)C1 (single isomer, unassigned) [Compound 303]

>  <target.under.test>
human hepatoma Huh-7 cell line harboring a HCV replicon

>  <result>
99.9%

$$$$
>  <compound>
CC(C)(C)C#Cc1cc(N(C(=O)[C@H]2CC[C@H](C)CC2)[C@H]2CC[C@H](Sc3nncn3C3CC3)CC2)c(C(=O)O)s1

>  <target.under.test>
human hepatoma Huh-7 cell line harboring a HCV replicon

>  <result>
100%

$$$$
>  <compound>
CC(C)(C)C#Cc1cc(N(C(=O)[C@H]2CC[C@H](C)CC2)[C@H]2CC[C@H](Oc3cnccn3)CC2)c(C(=O)O)s1

>  <target.under.test>
human hepatoma Huh-7 cell line harboring a HCV replicon

>  <result>
99.6%

$$$$
>  <compound>
CC1CCC(C(=O)N(c2cc(C#CC(C)(C)C)sc2C(=O)O)[C@H]2CC[C@H](Oc3cnccc3CN(C)C)CC2)CC1 (stereo partly shown)

>  <target.under.test>
human hepatoma Huh-7 cell line harboring a HCV replicon

>  <result>
99.9%

$$$$
>  <compound>
CC(C)(C)C#Cc1cc(N(C(=O)[C@H]2CC[C@H](C)CC2)[C@H]2CC[C@@H](Oc3ccnnc3)CC2)c(C(=O)O)s1

>  <target.under.test>
human hepatoma Huh-7 cell line harboring a HCV replicon

>  <result>
100%

$$$$
>  <compound>
CN1CCC(NC(=O)c2ccnc(O[C@H]3CC[C@H](N(c4cc(C#CC(C)(C)C)sc4C(=O)O)C(=O)[C@H]4CC[C@H](C)CC4)CC3)c2)CC1

>  <target.under.test>
human hepatoma Huh-7 cell line harboring a HCV replicon

>  <result>
99.9%

$$$$
>  <compound>
CC1CCC(C(=O)N(c2cc(C#CC(C)(C)C)sc2C(=O)O)[C@H]2CC[C@H](Oc3cc(CN4CCC(O)C4)ccn3)CC2)CC1 (stereo partly shown)

>  <target.under.test>
human hepatoma Huh-7 cell line harboring a HCV replicon

>  <result>
100%

$$$$
>  <compound>
CC(C)(C)C#Cc1cc(N(C(=O)[C@H]2CC[C@H](C)CC2)[C@H]2CC[C@@H](OC3CCOCC3)CC2)c(C(=O)O)s1

>  <target.under.test>
human hepatoma Huh-7 cell line harboring a HCV replicon

>  <result>
100%

$$$$
>  <compound>
CC(C)(C)C#Cc1cc(N(C(=O)[C@H]2CC[C@H](C)CC2)[C@H]2CCN(S(=O)(=O)c3cnc(=O)[nH]c3)C2)c(C(=O)O)s1

>  <target.under.test>
human hepatoma Huh-7 cell line harboring a HCV replicon

>  <result>
69.9%

$$$$
>  <compound>
CC1=CC[C@H](C(=O)N(c2cc(C#CC(C)(C)C)sc2C(=O)O)[C@H]2CC[C@H](O[C@H]3CCOC3)CC2)CC1

>  <target.under.test>
human hepatoma Huh-7 cell line harboring a HCV replicon

>  <result>
100%

$$$$
>  <compound>
Cc1cccnc1O[C@H]1CC[C@H](N(c2cc(C#CC(C)(C)C)sc2C(=O)O)C(=O)[C@H]2CC[C@H](C)CC2)CC1

>  <target.under.test>
human hepatoma Huh-7 cell line harboring a HCV replicon

>  <result>
99.7%

$$$$
>  <compound>
CC(C)(C)C#Cc1cc(N(C(=O)[C@H]2CC[C@H](C)CC2)[C@H]2CC[C@H](Oc3ccccn3)CC2)c(C(=O)O)s1

>  <target.under.test>
human hepatoma Huh-7 cell line harboring a HCV replicon

>  <result>
99.8%

$$$$
>  <compound>
CC(C)(C#Cc1cc(N(C(=O)[C@H]2CC[C@H](C)CC2)[C@H]2CC[C@H](OC3CCOC3)CC2)c(C(=O)O)s1)CCO (stereo partly shown)

>  <target.under.test>
human hepatoma Huh-7 cell line harboring a HCV replicon

>  <result>
99.9%

$$$$
>  <compound>
CC1CCC(C(=O)N(c2cc(C#CC(C)(C)C)sc2C(=O)O)C2CCC(Oc3cccc(CN4CCCC4)n3)CC2)CC1 (stereo not shown)

>  <target.under.test>
human hepatoma Huh-7 cell line harboring a HCV replicon

>  <result>
100%

$$$$
>  <compound>
CC(C)(C)C#Cc1cc(N(C(=O)[C@H]2CC[C@H](C)CC2)[C@H]2C[C@@H](Oc3cccnc3)C2)c(C(=O)O)s1

>  <target.under.test>
human hepatoma Huh-7 cell line harboring a HCV replicon

>  <result>
99.8%

$$$$
>  <compound>
Cn1nccc1S(=O)(=O)N1CCC(N(c2cc(C#CC(C)(C)C)sc2C(=O)O)C(=O)[C@H]2CC[C@H](C)CC2)CC1

>  <target.under.test>
human hepatoma Huh-7 cell line harboring a HCV replicon

>  <result>
99.8%

$$$$
>  <compound>
CC1CCC(C(=O)N(c2ccc(Oc3ccccn3)cc2)c2cc(C#CC(C)(C)C)sc2C(=O)O)CC1 (stereo not shown)

>  <target.under.test>
human hepatoma Huh-7 cell line harboring a HCV replicon

>  <result>
70.7%

$$$$
>  <compound>
CC(C)(C)C#Cc1cc(N(C(=O)[C@H]2CC[C@H](C)CC2)[C@H]2CC[C@H](Oc3ccncn3)CC2)c(C(=O)O)s1

>  <target.under.test>
human hepatoma Huh-7 cell line harboring a HCV replicon

>  <result>
100%

$$$$
>  <compound>
CC(C)(C)C#Cc1cc(N(C(=O)[C@H]2CC[C@H](C)CC2)[C@@H]2CCC(Oc3ccccn3)C(CN3CCCC3)C2)c(C(=O)O)s1 (stereo partly shown)

>  <target.under.test>
human hepatoma Huh-7 cell line harboring a HCV replicon

>  <result>
99.7%

$$$$
>  <compound>
Cc1nnc(S[C@H]2CC[C@@H](N(c3cc(C#CC(C)(C)C)sc3C(=O)O)C(=O)[C@H]3CC[C@H](C)CC3)CC2)s1

>  <target.under.test>
human hepatoma Huh-7 cell line harboring a HCV replicon

>  <result>
98.3%

$$$$

meta.source: patent US8569302B2
